Biological target: active phosphorylated p38α MAPK (Homo sapiens (Human))
Sequence (Q16539 whole entry): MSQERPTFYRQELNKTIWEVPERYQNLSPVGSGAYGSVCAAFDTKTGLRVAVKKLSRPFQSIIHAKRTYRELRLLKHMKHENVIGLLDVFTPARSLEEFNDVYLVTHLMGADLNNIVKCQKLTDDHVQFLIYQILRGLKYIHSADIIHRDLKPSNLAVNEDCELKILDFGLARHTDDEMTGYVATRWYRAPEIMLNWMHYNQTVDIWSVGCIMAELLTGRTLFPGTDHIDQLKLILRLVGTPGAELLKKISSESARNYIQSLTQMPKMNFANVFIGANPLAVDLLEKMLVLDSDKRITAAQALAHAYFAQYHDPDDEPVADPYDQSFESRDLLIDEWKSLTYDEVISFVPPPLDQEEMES
Test: Fluorescence polarisation (FP) binding assay, active enzyme
Conditions: Table 6; read-out: Ki ± SEM (μM) to active p38α
measurement_label: Ki

molecule: OCCC#Cc1sc(-c2ccc(F)cc2)c(-c2ccncc2)c1-c1ccc(O)cc1 [Compound 3.54]
measurement: 3.4 µM
//
molecule: O=C(c1ccccc1)c1cc(-c2ccncc2)c(-c2ccc(F)cc2)s1 [Compound 5.16]
measurement: 2.8 µM
//
molecule: Nc1nc(F)c(F)c(-c2cc(-c3ccncc3)c(-c3ccc(F)cc3)s2)c1F [Compound 5.20]
measurement: 0.21 µM
//
molecule: O=C(NCCO)c1ccc(-c2c(C#CCCO)sc(-c3ccc(F)cc3)c2-c2ccncc2)cc1 [Compound 3.38]
measurement: 1.7 µM
//
molecule: O=C(CCCO)c1cc(-c2ccncc2)c(-c2ccc(F)cc2)s1 [Compound 5.10]
measurement: 0.67 µM
//
molecule: Fc1ccc(-c2sc(I)cc2-c2ccncc2)cc1 [Compound 5.1]
measurement: 2.3 µM
//
molecule: Nc1nc(N)c(F)c(-c2cc(-c3ccncc3)c(-c3ccc(F)cc3)s2)c1F [Compound 5.21]
measurement: 0.16 µM

FYI, the data here is from patent US11273153B2.
